- ASSAY_NOTES: NCI Yeast Anticancer Drug Screen. Data for the mec2-1 strain (AID 157)
- EXPERIMENTAL_CONTEXT: S. cerevisiae mec2-1 strain, at 5.0 µM (retest, dose inferred, filed as 0.5), stronger effect = higher value
This is part of a sample that, as a whole, favours compounds with a hit. Of some 79,000 tested, about 15% had one in any assay.
READOUT: growth inhibition (%)
Return type: number; implicit unit %.

Please review the entries below; each comes with its answer.
[[record]]
molecule = "O=c1[nH]c2c([N+](=O)[O-])cc(Cl)cc2nc1/C=C(\\O)c1ccc(Cl)cc1"
readout = "growth inhibition"
unit_string = "%"
result_number = 20

[[record]]
molecule = "Cc1cc(I)ccc1NC(=S)Nc1ccccc1F"
readout = "growth inhibition"
unit_string = "%"
result_number = -4

[[record]]
molecule = "CCOC(=O)Sc1nc2ccccc2[nH]1"
readout = "growth inhibition"
unit_string = "%"
result_number = 2


Prompt line: Fill in reported growth inhibition for this entry: `Cc1ccc(COCO)c(O)c1`
Response line: 0

Prompt line: Fill in reported growth inhibition for this entry: `O=[N+]([O-])c1ccc(Sc2ccc([N+](=O)[O-])o2)cc1`
Response line: 94

Prompt line: Fill in reported growth inhibition for this entry: `COC(=O)CCCCCOS(=O)(=O)c1ccc(C)cc1`
Response line: -3

Prompt line: Fill in reported growth inhibition for this entry: `Cc1nc(-c2ccc(N=Cc3ccc(N(CCOS(C)(=O)=O)CCOS(C)(=O)=O)cc3)cc2)cs1`
Response line: -24

Prompt line: Fill in reported growth inhibition for this entry: `CCCCC(CCCC)=NNC(=S)SC`
Response line: 5

Prompt line: Fill in reported growth inhibition for this entry: `O=C1NC(=O)C(Cc2ccccc2)(Cc2ccccc2)S1`
Response line: 10

Prompt line: Fill in reported growth inhibition for this entry: `FC1(F)C2=C(SC3=C(S2)C(F)(F)C3(F)F)C1(F)F`
Response line: -4

Prompt line: Fill in reported growth inhibition for this entry: `CCCCCCCCCCCCNC(=O)C[n+]1ccc(C(N)=O)cc1`
Response line: -6

Prompt line: Fill in reported growth inhibition for this entry: CC12CCC(=O)C=C1CCC1C2CCC2(C)C(C(=O)Cn3cnc4c(=S)nc[nH]c43)CCC12 (configuration not stated)
Response line: 5

###

- ASSAY_NOTES: NCI Yeast Anticancer Drug Screen. Data for the rad50 strain (AID 155);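 further: 0% = growth of vehicle-only cultures of the same strain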
- EXPERIMENTAL_CONTEXT: S. cerevisiae rad50 strain growth inhibition; at 50.0 µM; stronger effect = higher value
Compounds without any hit were thinned out: in the full panel of roughly 79,000, 15% have a hit.
READOUT: growth inhibition (%)
Return type: number; implicit unit %.

[[record]]
compound = "COc1cc(C(c2cc3c(cc2O)OCO3)N2CCN(C(c3cc(OC)c(O)c(OC)c3)c3cc4c(cc3O)OCO4)CC2)cc(OC)c1O (stereo not given)"
result_number = 26.3

[[record]]
compound = "COc1ccc(NS(=O)(=O)c2ccc(N=Cc3c4ccccc4nc4cc(Cl)ccc34)cc2)nn1"
result_number = 94.2

[[record]]
compound = "O.O.O=Cc1cc(Br)cc(Br)c1O.O=Cc1cc(Br)cc(Br)c1O.[Co]"
result_number = 99.2

[[record]]
compound = "O=C(c1ccccc1)N1CCN(c2cccc(Cl)c2)CC1"
result_number = 29.2


Consider the record given below.
Prompt line: Fill in reported growth inhibition for this entry: CC1OC(Oc2c(-c3ccc(O)c(O)c3O)oc3cc(O)ccc3c2=O)C(O)C(O)C1O (stereo not given)
Response line: 14.4
